- Test system: H1975 cells
- Assay Method Text: Inhibition of tumor cell line growth (CellTiter-Glo), H1975
- Format: cell-based, human
- Measurement Setup: H1975, single inhibitor 0.01-10 μM, 5% FBS, 48 hours
Measure: inhibition of cell proliferation

# input Entry O=C(NOC[C@H](O)CO)c1ccc(F)c(F)c1Nc1ccc(I)cc1F : reported inhibition of cell proliferation = ?
# output weakly inhibited

# input Entry Cn1c(=O)n(-c2ccc(C(C)(C)C#N)cc2)c2c3cc(-c4cnc5ccccc5c4)ccc3ncc21 : reported inhibition of cell proliferation = ?
# output weakly inhibited

---

- Tested on: H358 cells
- Assay Method Text: Inhibition of tumor cell line growth (CellTiter-Glo), H358
- Type: cell-based, human
- Measurement Setup: H358, single inhibitor 0.01-10 μM, 5% FBS, 48 hours
Measure: inhibition of cell proliferation

# input Entry O=C(NOC[C@H](O)CO)c1ccc(F)c(F)c1Nc1ccc(I)cc1F [PD-325901] : reported inhibition of cell proliferation = ?
# output not

---

- System: H1993 cells
- Assay Method Text: Inhibition of tumor cell line growth (CellTiter-Glo), H1993
- Format: cell-based, human
- Measurement Setup: H1993, single inhibitor 0.01-10 μM, 5% FBS, 48 hours
Measure: inhibition of cell proliferation

# input Entry Cn1c(=O)n(-c2ccc(C(C)(C)C#N)cc2)c2c3cc(-c4cnc5ccccc5c4)ccc3ncc21 : reported inhibition of cell proliferation = ?
# output only weakly

# input Entry CN(C)C/C=C/C(=O)Nc1cc2c(Nc3ccc(F)c(Cl)c3)ncnc2cc1O[C@H]1CCOC1 : reported inhibition of cell proliferation = ?
# output only weakly

Values compiled from patent US20140057798A1.
